// reported Efflux ratio for each item listed
system: Pseudomonas aeruginosa MB9798 vs MB9799; details: fold difference between efflux+ (MB9798) and efflux− (MB9799) strains; imipenem at 2 μg/mL
quantityMeasured: Efflux ratio

[
  {
    "smilesCode": "C[C@H](N)CNS(=O)(=O)c1ccc(-c2ccc(N)nc2)c(-c2nn[nH]n2)c1S(N)(=O)=O",
    "quantityMeasured": "Efflux ratio",
    "measuredValue": 1.00
  },
  {
    "smilesCode": "C[C@@H](N)CNS(=O)(=O)c1ccc(-c2ccc(N)nc2)c(-c2nn[nH]n2)c1S(N)(=O)=O",
    "quantityMeasured": "Efflux ratio",
    "measuredValue": 1.00
  },
  {
    "smilesCode": "NCC(CN)NS(=O)(=O)c1ccc(-c2cccc3ccc(N)nc23)c(-c2nn[nH]n2)c1S(N)(=O)=O",
    "quantityMeasured": "Efflux ratio",
    "measuredValue": 1.00
  },
  {
    "smilesCode": "NC[C@@H](O)CNS(=O)(=O)c1ccc(-c2ccc3nccn3c2)c(-c2nn[nH]n2)c1S(N)(=O)=O",
    "quantityMeasured": "Efflux ratio",
    "measuredValue": 2.00
  },
  {
    "smilesCode": "NC(=O)c1csc(Nc2cccc(-c3ccc(S(=O)(=O)N[C@@H]4CCNC4)c(S(N)(=O)=O)c3-c3nn[nH]n3)c2)n1",
    "quantityMeasured": "Efflux ratio",
    "measuredValue": 4.00
  },
  {
    "smilesCode": "NCC(CN)NS(=O)(=O)c1ccc(-c2ccc3nccn3c2)c(-c2nn[nH]n2)c1S(N)(=O)=O",
    "quantityMeasured": "Efflux ratio",
    "measuredValue": 1.00
  },
  {
    "smilesCode": "CC1(NS(=O)(=O)c2ccc(-c3ccc(N)nc3)c(-c3nn[nH]n3)c2S(N)(=O)=O)CNC1.Cl.Cl",
    "quantityMeasured": "Efflux ratio",
    "measuredValue": 1.00
  },
  {
    "smilesCode": "C[C@H](CN)NS(=O)(=O)c1ccc(-c2cccnc2NCCN)c(-c2nn[nH]n2)c1S(N)(=O)=O",
    "quantityMeasured": "Efflux ratio",
    "measuredValue": 2.00
  },
  {
    "smilesCode": "NC[C@H](CO)NS(=O)(=O)c1ccc(-c2cccc3[nH]nnc23)c(-c2nn[nH]n2)c1S(N)(=O)=O",
    "quantityMeasured": "Efflux ratio",
    "measuredValue": 2.00
  },
  {
    "smilesCode": "NCc1nc2cc(-c3ccc(S(=O)(=O)NC[C@H](O)CN)c(S(N)(=O)=O)c3-c3nn[nH]n3)ccc2[nH]1",
    "quantityMeasured": "Efflux ratio",
    "measuredValue": 1.00
  },
  {
    "smilesCode": "NC[C@@H](CO)NS(=O)(=O)c1ccc(-c2ccc(N)nc2)c(-c2nn[nH]n2)c1S(N)(=O)=O",
    "quantityMeasured": "Efflux ratio",
    "measuredValue": 1.00
  },
  {
    "smilesCode": "NCCNC(=O)c1cc(Cl)cc(-c2ccc(S(=O)(=O)N[C@@H]3CCNC3)c(S(N)(=O)=O)c2-c2nn[nH]n2)c1N",
    "quantityMeasured": "Efflux ratio",
    "measuredValue": 2.00
  },
  {
    "smilesCode": "NCCNS(=O)(=O)c1ccc(-c2cccc3[nH]c(C(F)(F)CN)nc23)c(-c2nn[nH]n2)c1S(N)(=O)=O",
    "quantityMeasured": "Efflux ratio",
    "measuredValue": 1.00
  },
  {
    "smilesCode": "NCC(CN)NS(=O)(=O)c1ccc(-c2cccc3[nH]nnc23)c(-c2nn[nH]n2)c1S(N)(=O)=O",
    "quantityMeasured": "Efflux ratio",
    "measuredValue": 1.00
  },
  {
    "smilesCode": "NCCN1CC[C@@H](NS(=O)(=O)c2ccc(-c3ccc(N)nc3)c(-c3nn[nH]n3)c2S(N)(=O)=O)C1",
    "quantityMeasured": "Efflux ratio",
    "measuredValue": 1.00
  },
  {
    "smilesCode": "Nc1ccc(-c2ccc(S(=O)(=O)N3CCNCC3)c(S(N)(=O)=O)c2-c2nn[nH]n2)cn1",
    "quantityMeasured": "Efflux ratio",
    "measuredValue": 8.00
  },
  {
    "smilesCode": "Nc1ccc(-c2ccc(S(=O)(=O)NC[C@@H]3CCNC3)c(S(N)(=O)=O)c2-c2nn[nH]n2)cn1",
    "quantityMeasured": "Efflux ratio",
    "measuredValue": 1.00
  },
  {
    "smilesCode": "NCCNc1cc(-c2ccc(S(=O)(=O)N[C@@H]3CCNC3)c(S(N)(=O)=O)c2-c2nn[nH]n2)ccn1",
    "quantityMeasured": "Efflux ratio",
    "measuredValue": 4.00
  },
  {
    "smilesCode": "NCCNS(=O)(=O)c1ccc(-c2cccc(NC(=O)[C@@H](N)CN)c2)c(-c2nn[nH]n2)c1S(N)(=O)=O",
    "quantityMeasured": "Efflux ratio",
    "measuredValue": 2.00
  },
  {
    "smilesCode": "Nc1ncc(-c2cccc(-c3ccc(S(=O)(=O)N[C@@H]4CCNC4)c(S(N)(=O)=O)c3-c3nnn[nH]3)n2)[nH]1",
    "quantityMeasured": "Efflux ratio",
    "measuredValue": 4.00
  },
  {
    "smilesCode": "NC[C@H](CO)NS(=O)(=O)c1ccc(-c2ccc(N)nc2)c(-c2nn[nH]n2)c1S(N)(=O)=O",
    "quantityMeasured": "Efflux ratio",
    "measuredValue": 1.00
  },
  {
    "smilesCode": "NCc1nc2cc(-c3ccc(S(=O)(=O)NC[C@@H](O)CN)c(S(N)(=O)=O)c3-c3nn[nH]n3)ccc2[nH]1",
    "quantityMeasured": "Efflux ratio",
    "measuredValue": 1.00
  },
  {
    "smilesCode": "NCCNS(=O)(=O)c1ccc(-c2ccnc(N)c2)c(-c2nn[nH]n2)c1S(N)(=O)=O",
    "quantityMeasured": "Efflux ratio",
    "measuredValue": 2.00
  },
  {
    "smilesCode": "CN(CCN)S(=O)(=O)c1ccc(-c2cccc3[nH]c(N)nc23)c(-c2nn[nH]n2)c1S(N)(=O)=O",
    "quantityMeasured": "Efflux ratio",
    "measuredValue": 4.00
  },
  {
    "smilesCode": "NCCNC(=O)c1cc(Cl)cc(-c2ccc(S(=O)(=O)NCCN)c(S(N)(=O)=O)c2-c2nn[nH]n2)c1N",
    "quantityMeasured": "Efflux ratio",
    "measuredValue": 2.00
  },
  {
    "smilesCode": "C[C@@H](CN)NS(=O)(=O)c1ccc(-c2ccnc(N)c2)c(-c2nn[nH]n2)c1S(N)(=O)=O",
    "quantityMeasured": "Efflux ratio",
    "measuredValue": 4.00
  },
  {
    "smilesCode": "NCC(CN)NS(=O)(=O)c1ccc(-c2cccc3[nH]c(N)nc23)c(-c2nn[nH]n2)c1S(N)(=O)=O",
    "quantityMeasured": "Efflux ratio",
    "measuredValue": 1.00
  },
  {
    "smilesCode": "NC[C@H](N)CNS(=O)(=O)c1ccc(-c2ccc(N)nc2)c(-c2nn[nH]n2)c1S(N)(=O)=O",
    "quantityMeasured": "Efflux ratio",
    "measuredValue": 1.00
  }
]

----------
system: Serratia marcescens expressing IMP-1 (CL5741); format: cell-based; conditions: IMP-1 strain CL5741, with imipenem 1 μg/ml, 95% inhibition of growth

[
  {
    "compound": "NC(=O)c1csc(Nc2cccc(-c3ccc(S(=O)(=O)N[C@@H]4CCNC4)c(S(N)(=O)=O)c3-c3nn[nH]n3)c2)n1",
    "Serratia marcescens MITC95 [µM]": 1.563
  },
  {
    "compound": "CC[C@H](CN)NS(=O)(=O)c1ccc(-c2cccc3[nH]c(N)nc23)c(-c2nn[nH]n2)c1S(N)(=O)=O",
    "Serratia marcescens MITC95 [µM]": 0.7813
  },
  {
    "compound": "Nc1nc2c(-c3ccc(S(=O)(=O)NC[C@H]4CNCCN4)c(S(N)(=O)=O)c3-c3nn[nH]n3)cccc2[nH]1",
    "Serratia marcescens MITC95 [µM]": 1.563
  },
  {
    "compound": "NCCNS(=O)(=O)c1ccc(-c2cccc3ncccc23)c(-c2nn[nH]n2)c1S(N)(=O)=O",
    "Serratia marcescens MITC95 [µM]": 1.563
  },
  {
    "compound": "NCCNS(=O)(=O)c1ccc(-c2cccc(C(=O)N[C@@H]3CNC[C@H]3O)c2)c(-c2nn[nH]n2)c1S(N)(=O)=O",
    "Serratia marcescens MITC95 [µM]": 1.563
  },
  {
    "compound": "NS(=O)(=O)c1c(S(=O)(=O)N[C@@H]2CCNC2)ccc(-c2cccc3ncccc23)c1-c1nn[nH]n1",
    "Serratia marcescens MITC95 [µM]": 1.563
  },
  {
    "compound": "NCc1nc2c(-c3ccc(S(=O)(=O)NC[C@@H](O)CN)c(S(N)(=O)=O)c3-c3nn[nH]n3)cccc2s1",
    "Serratia marcescens MITC95 [µM]": 0.7813
  },
  {
    "compound": "Nc1ccc2cccc(-c3ccc(S(=O)(=O)N[C@@H]4CCNC4)c(S(N)(=O)=O)c3-c3nn[nH]n3)c2n1",
    "Serratia marcescens MITC95 [µM]": 0.7813
  },
  {
    "compound": "NCC(CN)NS(=O)(=O)c1ccc(-c2ccnc(N)c2)c(-c2nn[nH]n2)c1S(N)(=O)=O",
    "Serratia marcescens MITC95 [µM]": 6.25
  },
  {
    "compound": "NC[C@@H]1C[C@@H](NS(=O)(=O)c2ccc(-c3cccc4[nH]c(N)nc34)c(-c3nn[nH]n3)c2S(N)(=O)=O)CN1",
    "Serratia marcescens MITC95 [µM]": 3.125
  },
  {
    "compound": "Nc1nc2c(-c3ccc(S(=O)(=O)NC4CNC[C@H]4N)c(S(N)(=O)=O)c3-c3nn[nH]n3)cccc2[nH]1 (stereo in doubt)",
    "Serratia marcescens MITC95 [µM]": 1.042
  },
  {
    "compound": "NCc1nc2c(-c3ccc(S(=O)(=O)N[C@@H]4CCNC4)c(S(N)(=O)=O)c3-c3nn[nH]n3)cccc2s1",
    "Serratia marcescens MITC95 [µM]": 0.7813
  },
  {
    "compound": "CC1(NS(=O)(=O)c2ccc(-c3cccc4[nH]c(N)nc34)c(-c3nn[nH]n3)c2S(N)(=O)=O)CNC1",
    "Serratia marcescens MITC95 [µM]": 0.7813
  },
  {
    "compound": "Nc1cccc(-c2ccc(S(=O)(=O)N[C@@H]3CCNC3)c(S(N)(=O)=O)c2-c2nn[nH]n2)n1",
    "Serratia marcescens MITC95 [µM]": 1.563
  }
]
